Biological target: SARS-COV-2 3CLpro (Severe acute respiratory syndrome coronavirus 2, UniProt P0DTD1)
Measurement Name: IC50 (µM)
Please give a number only; it is taken to be in µM.

Lab request: please report IC50 under test system SARS-COV-2 3CLpro (Severe acute respiratory syndrome coronavirus 2, UniProt P0DTD1) for CC(C)=CCC=C(C)C1CC=C(C)CC1 (stereo not shown)
186

* * *

Biological target: UniProt P18031
Sequence (P18031 1-321): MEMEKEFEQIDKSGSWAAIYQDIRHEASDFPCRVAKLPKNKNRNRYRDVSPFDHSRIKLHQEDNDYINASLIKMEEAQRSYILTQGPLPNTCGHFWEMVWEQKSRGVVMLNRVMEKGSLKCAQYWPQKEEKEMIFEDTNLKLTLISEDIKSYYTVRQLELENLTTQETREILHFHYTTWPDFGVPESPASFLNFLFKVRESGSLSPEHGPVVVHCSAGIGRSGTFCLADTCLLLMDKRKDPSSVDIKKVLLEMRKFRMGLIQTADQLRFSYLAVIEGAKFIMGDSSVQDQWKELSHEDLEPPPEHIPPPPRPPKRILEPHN
Test: PTP1B-catalyzed hydrolysis of p-nitrophenyl phosphate (pNPP), in vitro kinetic assay
Format: biochemical
Details: PTP1B1-321; fit of uncompetitive model; read-out: Ki, uncompetitive model
Measurement Name: pKi
# pKi: negative log10 of molar concentration; output just the value

What value of measured pKi is listed for "CC1=C[C@H]2[C@@H](CC1)[C@](C)(O)CCCC2(C)C" ?
3.60

The reported numbers originate from patent US20250034551A1.
